Test system: collagenase Type IV
Test: Collagenase inhibition test
Assay type: biochemical
Settings: Table 6; test concentration 40 μg/ml
QUANTITY_NAME: Percent collagenase inhibition (%)
One number for each entry, in %.

Parameters: items (list). Returns: Percent collagenase inhibition (%) for each item.
1. O=C(OC1C(O)OC2COC(=O)c3cc(Oc4c(-c5cc(O)c(O)c(O)c5)[o+]c5cc(O)cc6c5c4-c4c(C(=O)O)cc(O)c(O)c4O6)c(O)c(O)c3-c3c(cc(O)c(O)c3O)C(=O)OC2C1OC(=O)c1cc(O)c(O)c(O)c1)c1cc(O)c(O)c(O)c1 (stereo not shown)
2. O=C(O[C@H]1[C@@H]2OC(=O)c3cc(O)c(O)c(O)c3-c3c(cc(O)c(O)c3O)C(=O)OC[C@H]2OC(O)[C@@H]1OC(=O)c1cc(O)c(O)c(O)c1)c1cc(O)c(O)c(O)c1 (stereo partly shown) [Tellimagrandin 1, tellimagrandin 1, reference compound]
3. O=C(OC1C(O)OC2COC(=O)c3cc(Oc4c(-c5ccc(O)c(O)c5)[o+]c5cc(O)cc6c5c4-c4c(C(=O)O)cc(O)c(O)c4O6)c(O)c(O)c3-c3c(cc(O)c(O)c3O)C(=O)OC2C1OC(=O)c1cc(O)c(O)c(O)c1)c1cc(O)c(O)c(O)c1 (stereo not shown)

[A]
1: 42.3; 2: 42.7; 3: 52.0
